Molecular target: HIV-1 envelope glycoprotein (gp120) of virus VS001 (HIV-1)
Experiment: cell-based or functional assay
Under this convention, fulfilled denotes Neutralization IC50 strictly below 0.5 µg/mL and not fulfilled denotes Neutralization IC50 at or above 0.5 µg/mL.

binder | className
2.3.15-1 (antibody, human IgG1, kappa, V domains shown) VH: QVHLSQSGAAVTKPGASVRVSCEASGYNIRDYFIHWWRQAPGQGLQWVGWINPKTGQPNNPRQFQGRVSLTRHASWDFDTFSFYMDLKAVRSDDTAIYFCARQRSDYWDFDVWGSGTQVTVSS VL: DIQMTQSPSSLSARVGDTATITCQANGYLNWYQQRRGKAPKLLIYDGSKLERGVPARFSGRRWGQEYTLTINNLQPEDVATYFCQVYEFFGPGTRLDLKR | not fulfilled
2.3.7-1 (antibody, human IgG1, kappa, V domains shown) VH: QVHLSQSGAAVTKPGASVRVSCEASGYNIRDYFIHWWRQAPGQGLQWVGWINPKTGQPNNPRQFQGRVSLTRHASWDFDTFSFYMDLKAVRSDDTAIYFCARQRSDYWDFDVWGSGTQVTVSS VL: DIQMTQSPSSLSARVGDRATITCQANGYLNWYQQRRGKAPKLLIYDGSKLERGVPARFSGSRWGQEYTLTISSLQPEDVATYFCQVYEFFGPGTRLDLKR | fulfilled
1.1.119-1 (antibody, human IgG1, kappa, V domains shown) VH: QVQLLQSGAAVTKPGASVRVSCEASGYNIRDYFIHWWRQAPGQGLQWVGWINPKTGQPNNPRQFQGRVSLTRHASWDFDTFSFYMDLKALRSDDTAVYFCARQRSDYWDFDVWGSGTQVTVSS VL: DIQMTQSPSSLSASVGDRATITCQANGYLNWYQQRRGKAPKLLIYDGSKLERGVPSRFSGSRWGQEYTLTISSLQPEDIATYFCQVYEFFGPGTRLDLKR | fulfilled
1.1.117-1 (antibody, human IgG1, kappa, V domains shown) VH: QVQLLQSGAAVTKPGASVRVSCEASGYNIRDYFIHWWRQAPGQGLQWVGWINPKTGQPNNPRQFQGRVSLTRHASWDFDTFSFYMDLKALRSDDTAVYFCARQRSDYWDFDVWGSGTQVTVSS VL: DIQMTQSPSSLSASVGDTATITCQANGYLNWYQQRRGKAPKLLIYDGSKLERGVPSRFSGRRWGQEYILTINNLQPEDIATYFCQVYEFFGPGTRLDLKR | not fulfilled
